# test_system: Sushi domains (SD1/2) protein
# measurement_protocol: Fluorescence polarization (FP) competition assay with AJAP-1probe, calculated Ki
# Format: binding
# details: Table 12, deep mutational scanning validation variants of PIANPWT; read-out: Ki (nM) mean ± SEM
Residues, ends and D or L forms follow the SMILES beside them.
experimental_readout: Ki

Take a look at these entries with their results.
- compound: "CC[C@H](C)[C@H](NC(=O)[C@H](C)NC(=O)[C@H](CC(=O)O)NC(=O)[C@@H]1CCCN1C(C)=O)C(=O)N[C@H](C(=O)N[C@@H](Cc1c[nH]c2ccccc12)C(=O)NCC(=O)N1CCC[C@H]1C(=O)N[C@H](C(=O)N[C@H](C(=O)N[C@@H](CO)C(=O)N[C@@H](CCCNC(=N)N)C(=O)N[C@@H](CCC(=O)O)C(=O)N[C@@H](CC(=O)O)C(N)=O)C(C)C)[C@@H](C)O)C(C)C [PDAIVWGPTVSRED] (Ac-PDAIVWGPTVSRED-NH2)"
  observed: "673 nM"
- compound: "CC[C@H](C)[C@H](NC(=O)[C@H](C)NC(=O)[C@H](Cc1c[nH]c2ccccc12)NC(=O)[C@@H]1CCCN1C(C)=O)C(=O)N[C@@H](CC(=O)O)C(=O)N[C@@H](Cc1c[nH]c2ccccc12)C(=O)NCC(=O)N1CCC[C@H]1C(=O)N[C@H](C(=O)N[C@H](C(=O)N[C@@H](CO)C(=O)N[C@@H](CCCNC(=N)N)C(=O)N[C@@H](CCC(=O)O)C(=O)N[C@@H](CC(=O)O)C(N)=O)C(C)C)[C@@H](C)O [PWAIDWGPTVSRED] (Ac-PWAIDWGPTVSRED-NH2)"
  observed: "1300 nM"
- compound: "CC[C@H](C)[C@H](NC(=O)[C@H](C)NC(=O)[C@H](CO)NC(=O)[C@@H]1CCCN1C(C)=O)C(=O)N[C@H](C(=O)N[C@@H](Cc1c[nH]c2ccccc12)C(=O)NCC(=O)N1CCC[C@H]1C(=O)N[C@H](C(=O)N[C@H](C(=O)N[C@@H](CO)C(=O)N[C@@H](CCCNC(=N)N)C(=O)N[C@@H](CCC(=O)O)C(=O)N[C@@H](CC(=O)O)C(N)=O)C(C)C)[C@@H](C)O)C(C)C [PSAIVWGPTVSRED] (Ac-PSAIVWGPTVSRED-NH2)"
  observed: "906 nM"

Which Ki is listed for CC[C@H](C)[C@H](NC(=O)[C@H](Cc1ccccc1)NC(=O)[C@H](Cc1c[nH]c2ccccc12)NC(=O)[C@@H]1CCCN1C(C)=O)C(=O)N[C@H](C(=O)N[C@@H](Cc1c[nH]c2ccccc12)C(=O)NCC(=O)N1CCC[C@H]1C(=O)N[C@H](C(=O)N[C@H](C(=O)N[C@@H](CO)C(=O)N[C@@H](CC(=O)O)C(=O)N[C@@H](CCC(=O)O)C(=O)N[C@@H](CC(=O)O)C(N)=O)C(C)C)[C@@H](C)O)C(C)C [PWFIVWGPTVSDED] (Ac-PWFIVWGPTVSDED-NH2) ?
192 nM

Which Ki is listed for CC[C@H](C)[C@H](NC(=O)[C@H](C)NC(=O)[C@H](Cc1c[nH]cn1)NC(=O)[C@@H]1CCCN1C(C)=O)C(=O)N[C@H](C(=O)N[C@@H](Cc1c[nH]c2ccccc12)C(=O)NCC(=O)N1CCC[C@H]1C(=O)N[C@H](C(=O)N[C@H](C(=O)N[C@@H](CO)C(=O)N[C@@H](CCCNC(=N)N)C(=O)N[C@@H](CCC(=O)O)C(=O)N[C@@H](CC(=O)O)C(N)=O)C(C)C)[C@@H](C)O)C(C)C [PHAIVWGPTVSRED] (Ac-PHAIVWGPTVSRED-NH2) ?
1500 nM
